Values were extracted from ChEMBL document CHEMBL5252547.

target: UniProtKB P41145
Sequence (P41145 whole entry): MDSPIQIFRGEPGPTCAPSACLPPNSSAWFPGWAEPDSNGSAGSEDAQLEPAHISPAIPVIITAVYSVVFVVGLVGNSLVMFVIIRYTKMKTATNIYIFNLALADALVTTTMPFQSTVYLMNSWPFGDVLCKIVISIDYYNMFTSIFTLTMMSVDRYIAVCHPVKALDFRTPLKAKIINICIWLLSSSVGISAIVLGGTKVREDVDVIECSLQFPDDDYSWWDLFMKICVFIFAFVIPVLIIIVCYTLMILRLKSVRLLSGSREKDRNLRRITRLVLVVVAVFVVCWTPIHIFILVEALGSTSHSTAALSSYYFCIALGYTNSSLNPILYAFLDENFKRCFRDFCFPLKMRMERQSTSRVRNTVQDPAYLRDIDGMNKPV
assayMetric: pKi
Answers are plain numbers, as −log10 of the molar value.

Entry COC(=O)[C@@H]1C[C@H](OC(C)=O)C(=O)[C@H]2[C@@]1(C)CC[C@H]1C(=O)O[C@H](C(=O)Nc3ccccc3)C[C@]21C : reported pKi = ?
6.00
